Sourced from the supplement of paper PMC7877785

- experiment_description: self-splicing fitness, log relative to wild type (ln ratio); higher = more splicing; Tetrahymena group I intron in knt gene, E. coli kanamycin selection, DiMSum; sequences stand for … in CUCUCU…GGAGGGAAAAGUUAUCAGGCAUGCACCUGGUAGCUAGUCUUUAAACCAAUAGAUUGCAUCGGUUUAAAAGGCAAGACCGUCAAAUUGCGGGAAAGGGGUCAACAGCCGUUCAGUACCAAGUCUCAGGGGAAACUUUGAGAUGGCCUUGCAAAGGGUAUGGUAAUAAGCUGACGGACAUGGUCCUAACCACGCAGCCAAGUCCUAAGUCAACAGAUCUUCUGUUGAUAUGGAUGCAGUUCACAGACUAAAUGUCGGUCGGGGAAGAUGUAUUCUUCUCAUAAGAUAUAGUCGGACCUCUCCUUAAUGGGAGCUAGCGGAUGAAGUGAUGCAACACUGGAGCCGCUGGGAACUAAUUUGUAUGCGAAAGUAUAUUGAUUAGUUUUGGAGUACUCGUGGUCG;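 further: selection with 25 µg/mL kanamycin versus none on LB agar overnight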
- condition_description: 37 °C
Let's look at some sequences and their measured self-splicing fitness (ln).
The answer should be written as a number, with no unit following it.

Known results for sequences:
[
  {
    "sequence_input": "AUUUAGCAAUAUUACGAGGA",
    "result_value": -2.18
  },
  {
    "sequence_input": "CAUAAGCAAUAUUACGGGGA",
    "result_value": -2.83
  },
  {
    "sequence_input": "UGGGAGCAAUAUUACGAAGU",
    "result_value": -1.21
  }
]

Would you kindly look at the next entry?
Which self-splicing fitness (ln) is reported for this sequence? "UCCAAGCAAUAUUACGCGUC"
-2.63

* * *

- experiment_description: self-splicing fitness, log relative to wild type (ln ratio); higher = more splicing; Tetrahymena group I intron in knt gene, E. coli kanamycin selection, DiMSum; sequences stand for … in CUCUCU…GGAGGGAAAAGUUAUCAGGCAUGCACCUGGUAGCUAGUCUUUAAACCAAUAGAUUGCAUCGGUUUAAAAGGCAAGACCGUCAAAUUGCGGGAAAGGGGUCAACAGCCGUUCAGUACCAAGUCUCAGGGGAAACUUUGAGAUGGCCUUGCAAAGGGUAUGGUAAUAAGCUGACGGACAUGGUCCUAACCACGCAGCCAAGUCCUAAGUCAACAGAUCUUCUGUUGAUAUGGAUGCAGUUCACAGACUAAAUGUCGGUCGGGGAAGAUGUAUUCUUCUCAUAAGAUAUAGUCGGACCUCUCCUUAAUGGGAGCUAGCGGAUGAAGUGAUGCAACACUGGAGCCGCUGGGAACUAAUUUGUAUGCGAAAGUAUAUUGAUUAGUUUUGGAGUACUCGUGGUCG
- condition_description: 37 °C
Recorded self-splicing fitness (ln) determines the group label, using lower (below -1), middle (-1 to below -0.5), upper (-0.5 or more)

Worked examples follow.
[
  {
    "sequence_input": "AACCAGCAAUAUUACGCCUU",
    "label_class": "upper"
  },
  {
    "sequence_input": "CGAUAGCAAUAUUACGAUAU",
    "label_class": "lower"
  }
]

Into which category would you place "UCGCAGCAAUAUUACGACUA" ?
upper

Into which category would you place "AAUCAGCAAUAUUACGAGAC" ?
middle

Into which category would you place "GUAGAGCAAUAUUACGGUCA" ?
upper

Into which category would you place "UUCCAGCAAUAUUACGUCUU" ?
lower

Into which category would you place "CAAUAGCAAUAUUACGUGUG" ?
middle

Into which category would you place "AGGAAGCAAUAUUACGCCGG" ?
middle

Into which category would you place "GAUCAGCAAUAUUACGGGGC" ?
lower
